# System name: aldose reductase (Bos taurus)
# Construct: the preparation of the enzyme from bovine lens; from tissue; host or cells: bovine lens
# Test name: in vitro aldose reductase inhibition (modified Hayman and Kinoshita procedure)
# Assay type: biochemical, bovine
# Experimental context: 10^-5 molar; read-out: % Inhibition at Different Molar Concentration (in vitro), 10^-5
Readout kind: inhibition at 10 µM (%)

What value of measured inhibition at 10 µM is listed for CN(CC(=O)O)C(=S)c1cccc2c(Br)c(OCc3cccc(C(F)(F)F)c3)ccc12 ?
86

Please report the recorded inhibition at 10 µM for CCCN(CC(=O)O)C(=S)c1cccc2c(Br)cccc12 .
91

Item under review: C=CCN(CC(=O)O)C(=S)c1cccc2c(Br)cccc12 . Reported inhibition at 10 µM?
92
